Cited source for all entries: the supplement of paper PMC10567573

B1: ETS1 (parent)
chain: YVRDRADLNKDKPVIPAAALAGYT

Variants of: B1
Experiment: protein stability index of a GFP-peptide fusion (GPS, HEK-293T) (PSI 1-6); higher = more stable;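 further: lentivirally expressed fusions sorted by FACS into six bins by GFP to DsRed ratio, PSI derived from sequencing read proportions per bin multiplied by bin number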
Conditions: c terminus: a fixed tail appended
Measured protein stability index values are reported for all entries that follow.
API note: the answer field is a bare number with no unit suffix.

Look over these answered cases.
mutation spec | numeric readout
I15F | 1.8
L20K | 1.48
A19N | 2.17
V2F | 2.88

Problem: Provide only the value of recorded protein stability index for L8P
Solution: 1.87

Problem: Provide only the value of recorded protein stability index for A17D
Solution: 1.41

Problem: Provide only the value of recorded protein stability index for Y1M
Solution: 3.85

Problem: Provide only the value of recorded protein stability index for K10Q
Solution: 2.55

Problem: Provide only the value of recorded protein stability index for P16D
Solution: 2.54

Problem: Provide only the value of recorded protein stability index for R3L
Solution: 1.55
